Origin of values: paper PMC4336329

Overview of recorded hERG current change (%, negative = inhibition) at 10uM for various compounds
target: human ether-à-go-go-related gene (hERG) potassium channel (human); test: primary screen, population patch clamp on CHO cells stably expressing hERG; higher = less effect of the substance;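 further: peak tail current of the secondary pulse compared with the same well before compound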
Sequence (Q12809 whole entry, looked up): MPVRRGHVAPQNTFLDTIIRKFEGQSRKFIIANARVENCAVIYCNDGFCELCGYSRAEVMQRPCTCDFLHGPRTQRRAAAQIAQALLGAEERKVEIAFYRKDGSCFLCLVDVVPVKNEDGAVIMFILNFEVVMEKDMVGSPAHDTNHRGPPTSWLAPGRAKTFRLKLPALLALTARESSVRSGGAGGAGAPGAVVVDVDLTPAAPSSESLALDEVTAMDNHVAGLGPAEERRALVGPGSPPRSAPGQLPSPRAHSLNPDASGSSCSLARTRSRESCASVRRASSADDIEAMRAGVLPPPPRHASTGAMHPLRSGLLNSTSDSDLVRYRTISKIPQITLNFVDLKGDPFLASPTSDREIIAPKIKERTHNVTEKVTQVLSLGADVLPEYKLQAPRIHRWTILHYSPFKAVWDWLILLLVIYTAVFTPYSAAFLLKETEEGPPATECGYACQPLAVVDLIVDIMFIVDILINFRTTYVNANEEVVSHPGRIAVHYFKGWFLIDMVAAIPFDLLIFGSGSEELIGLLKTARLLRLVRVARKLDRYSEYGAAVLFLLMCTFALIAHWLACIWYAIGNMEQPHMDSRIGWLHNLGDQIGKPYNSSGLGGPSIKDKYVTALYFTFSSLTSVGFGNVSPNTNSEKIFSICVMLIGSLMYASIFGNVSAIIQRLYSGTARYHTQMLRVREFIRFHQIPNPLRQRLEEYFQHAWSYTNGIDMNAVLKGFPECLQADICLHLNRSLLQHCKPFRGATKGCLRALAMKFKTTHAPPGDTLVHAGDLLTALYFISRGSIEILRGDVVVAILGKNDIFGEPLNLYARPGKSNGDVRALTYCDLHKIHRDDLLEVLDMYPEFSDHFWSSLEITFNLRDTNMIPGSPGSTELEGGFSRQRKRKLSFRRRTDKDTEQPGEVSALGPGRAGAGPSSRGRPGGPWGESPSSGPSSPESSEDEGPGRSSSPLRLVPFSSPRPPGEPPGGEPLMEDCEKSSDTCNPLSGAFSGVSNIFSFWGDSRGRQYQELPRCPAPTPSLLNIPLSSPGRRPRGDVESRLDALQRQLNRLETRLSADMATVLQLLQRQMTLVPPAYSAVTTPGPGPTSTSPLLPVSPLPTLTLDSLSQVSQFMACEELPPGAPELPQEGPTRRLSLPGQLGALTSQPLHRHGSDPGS
The whole screen tested about 310,000 compounds, of which about 14,000 (4.5%) showed an effect of 50% or more. The effect is printed as a negative number. The sample holds strong results, similar compounds and a random draw of the others, so the mix is not that of the screen.
assay.readout: hERG current change (%, negative = inhibition) at 10uM (%)

> print(dat)
                                    compound  value.unit  value.observed
 1  Cc1nnc(SCC(=O)NC2CCCc3c2cnn3-c2ccccc2F)o1 (stereo not drawn)           %            20.5
 2  CCOc1ccc(NC(=O)c2c(NC(=O)CNCCN3CCOCC3)sc3c2CCC3)cc1           %           -69.3
 3  CC(C)=C1C2CCC1C(C(=O)Nc1cc(C)cc(C)c1)C2C(=O)O (stereo not drawn)           %              14
 4    COC(=O)c1c(NC(=O)CCN2CCOCC2)sc2c1CCCC2           %             -26
 5  COc1ccc2c(c1)NC(c1ccc(N(C)C)cc1)c1cccn1-2 (stereo not drawn)           %            12.5
 6  CC(=O)Nc1ccc2c(c1)C(=O)N(c1cccc3ccccc13)C2=O           %           -9.32
 7  O=C(COc1ncnc2c(Cl)cc(Cl)cc12)NCCC1=CCCCC1           %            12.4
 8  N#CC1=CN(Cc2ccccc2)C=C(/C=N/Nc2ccccc2)C1           %           -5.72
 9  Cc1cccc(C)c1Nc1nnc(SCC(=O)NC2CCS(=O)(=O)C2)s1 (stereo not drawn)           %            1.96
10  CCOC(=O)C1=C(C)N(C)C(=O)NC1c1ccccc1OC (stereo not drawn)           %           -12.1
11  Cc1ccc(C)c(S(=O)(=O)N2CCN(C(=O)Cn3c(C(F)(F)F)nc4ccccc43)CC2)c1           %           -1.16
12  CCOC(=O)C1CCN(C(=O)C2CCN(S(=O)(=O)CC)CC2)CC1           %            -2.7
13  O=C(c1ccc2c(c1)OCCO2)C1CCN(C(=O)c2ccc(F)cc2)CC1           %             -13
14  CCOc1ccc(NC(=O)c2c(NC(=O)CN3CCN(C)CC3)sc3c2CCC3)cc1           %           -72.7
15  O=C(CN1CCCC1)Nc1sc2c(c1C(=O)Nc1ccc(Br)cc1)CCC2           %           -1.29
16  C=CCC1NS(=O)(=O)OC2CCCC12 (stereo not drawn)           %            10.6
17  CCc1nnc(NC(=O)CN2C(=O)NC3(CC(C)CC(C)(C)C3)C2=O)s1 (stereo not drawn)           %            7.29
18        COCCCNC(=O)c1cn(Cc2c(F)cccc2Cl)nn1           %           -3.65
19           N#CCOC(=O)c1c2c(nc3ccccc13)CCC2           %           -23.1
20  COc1ccc(-c2cc(CNS(=O)(=O)c3ccc(NC(C)=O)cc3)on2)cc1           %            18.6
21  COc1ccc(NC(=O)c2c(NC(=O)CNCc3ccco3)sc3c2CCC3)cc1           %            17.8
